- protocol_description: Selectivity ratio of alpha1 beta-3 gamma2 GABA A / BzR and alpha5 beta-3 gamma2 GABA A / BzR
assay_endpoint: Ratio

molecule	observed
CN1Cc2c(C(=O)OCC3CC3)ncn2-c2ccc(Cl)cc2C1=O	1.7
C#Cc1ccc2c(c1)C(=O)N1CC[C@H]1c1c(C(=O)OCC)ncn1-2	57
CN1C(=O)CN=C(c2cccs2)c2cc(F)ccc21	2.15
CC(=O)c1ncn2c1CN(C)C(=O)c1cc(Cl)ccc1-2	6.7
CN1Cc2c(C(=O)OC(C)(C)C)ncn2-c2ccc(O)cc2C1=O	10.7
CN1C(=O)CN=C(c2ccccc2)c2cc(Br)ccc21	1.22
